Molecular target: furin, P09958;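 also: purified furin at 1:10 enzyme:substrate in 50 mM HEPES pH 7.5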
Sequence (P09958 whole entry): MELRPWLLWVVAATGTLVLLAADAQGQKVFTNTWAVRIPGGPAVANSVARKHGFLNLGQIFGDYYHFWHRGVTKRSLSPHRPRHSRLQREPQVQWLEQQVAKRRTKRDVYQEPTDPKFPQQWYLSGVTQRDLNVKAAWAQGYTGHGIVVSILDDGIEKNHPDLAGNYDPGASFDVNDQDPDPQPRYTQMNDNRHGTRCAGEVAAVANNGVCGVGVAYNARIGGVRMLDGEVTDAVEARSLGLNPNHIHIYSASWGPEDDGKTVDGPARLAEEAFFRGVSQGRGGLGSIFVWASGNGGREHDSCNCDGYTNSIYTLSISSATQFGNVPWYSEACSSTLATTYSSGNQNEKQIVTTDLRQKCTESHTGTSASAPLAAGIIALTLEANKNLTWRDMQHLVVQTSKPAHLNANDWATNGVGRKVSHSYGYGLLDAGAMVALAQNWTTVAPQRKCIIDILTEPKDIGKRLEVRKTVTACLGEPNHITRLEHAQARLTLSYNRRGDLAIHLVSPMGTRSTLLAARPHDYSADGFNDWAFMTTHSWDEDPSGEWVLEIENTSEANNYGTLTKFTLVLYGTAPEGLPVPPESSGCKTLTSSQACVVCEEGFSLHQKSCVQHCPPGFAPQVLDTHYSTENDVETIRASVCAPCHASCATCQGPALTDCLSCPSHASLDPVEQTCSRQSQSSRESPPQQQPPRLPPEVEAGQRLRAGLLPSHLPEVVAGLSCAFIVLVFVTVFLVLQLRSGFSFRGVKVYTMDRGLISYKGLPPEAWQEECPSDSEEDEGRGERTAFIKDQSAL
Experiment: furin cleavage Z-score vs untreated control; higher = more cleavage, active = 3.5 or more, inactive = 1 or less, 8 variable residues between constant flanks
Details: 30 min
Some of the results follow. The true hit rate is not given.
The reply should name one outcome from active, inactive

> print(dat)
               sequence.content  category.label
1    CASVDRWRRTAGNASASA [FS-95]          active
2   CARRRRERRTAGNASASA [FS-375]          active
3   CACSHRERRDAGNASASA [FS-584]          active
4  CAMHIRRKRIAGNASASA [FS-1235]          active
5   CAPVVTSTWVAGNASASA [HC2159]        inactive
6    CALLGCIITSAGNASASA [HC680]        inactive
7   CALAERRVRIAGNASASA [FS-265]        inactive
8  CARRRRFVPVAGNASASA [FS-2786]          active

Please state the recorded outcome for this sequence: CALILRSKRYAGNASASA [FS-1024]
active

Hey, what did the test say about CASSDLYLVTAGNASASA [HC724] ?
inactive

Fill in: this test's call for CAARIRVKRYAGNASASA [FS-8] is ___
active

Any idea what this test logged for CAFKNRSCRIAGNASASA [FS-768] ?
inactive
